meta.source: the supplement of paper PMC10724198

tested on: Saccharomyces cerevisiae; assay: protein stability index of tFT-peptide fusion (C-terminal peptide) (PSI (0-1 scale)); higher = more stable (slower turnover); conditions: genetic background: wild type; temperature: 30 C
protein stability index by entry:
Respond numerically, and do not add a unit to the figure.

# input Given the sequence "VVAGGERMRTGV" , what is its reported protein stability index?
# output 0.671

---

test system: Saccharomyces cerevisiae; assay: protein stability index of tFT-peptide fusion (C-terminal peptide) (PSI (0-1 scale)); higher = more stable (slower turnover); settings: genetic background: wild type; temperature: 30 C
endpoint.label: protein stability index
Respond numerically, and do not add a unit to the figure.

Below are worked cases with known answers.
1) QCNYCVQNLSSR : 0.695
2) KEEGLKRAKGPQ : 0.642
3) LPPLAPASHHLC : 0.493
4) SSSTPPVHVPIS : 0.647
5) SRHRAVRAGENW : 0.708
6) VLFLLSGPAILL : 0.682
7) SPAKRLFRFPSS : 0.729
8) PLPPPSPSTPPP : 0.796

# input Given the sequence "PLPPPPPPPSPS" , what is its reported protein stability index?
# output 0.835

# input Given the sequence "FIGLGPGVGGVW" , what is its reported protein stability index?
# output 0.704

# input Given the sequence "TFPPLSPSPPLS" , what is its reported protein stability index?
# output 0.727

# input Given the sequence "LALSRVALFSHS" , what is its reported protein stability index?
# output 0.679

# input Given the sequence "VCFCFLRFLSLL" , what is its reported protein stability index?
# output 0.262

---

test system: Saccharomyces cerevisiae; assay: protein stability index of tFT-peptide fusion (C-terminal peptide) (PSI (0-1 scale)); higher = more stable (slower turnover); details: genetic background: das1 deletion; temperature: 30 C
protein stability index by entry:
Respond numerically, and do not add a unit to the figure.

Below are worked cases with known answers.
1. VKKSNWSNYFKS [PCL2 C-terminal 12 aa] : 0.687
2. NPWKSQIRDWKN [YBL100W-C C-terminal 12 aa] : 0.704
3. AYECAKHFLMKN [MRS4 C-terminal 12 aa] : 0.706
4. GKSHPFHSSDRY [YJL211C C-terminal 12 aa] : 0.688

# input Under Saccharomyces cerevisiae: protein stability index value of LNKKREKKDETE [CSM1 C-terminal 12 aa] ?
# output 0.707

# input Under Saccharomyces cerevisiae: protein stability index value of WYLQSVNLRDGV [HOL1 C-terminal 12 aa] ?
# output 0.685

# input Under Saccharomyces cerevisiae: protein stability index value of NTQVDDETKKNN [YDC1 C-terminal 12 aa] ?
# output 0.708

# input Under Saccharomyces cerevisiae: protein stability index value of KNRRGNRSGYRR [THO1 C-terminal 12 aa] ?
# output 0.703

---

protein stability index by entry:
tested on: Saccharomyces cerevisiae; assay: protein stability index of tFT-peptide fusion (C-terminal peptide) (PSI (0-1 scale)); higher = more stable (slower turnover); settings: genetic background: wild type; temperature: 30 C
Respond numerically, and do not add a unit to the figure.

1) FCRLSHYLSASP : 0.687
2) VDVSGIKAGRPW : 0.681
3) RLSPGSPSPFPC : 0.691
4) ISPPAPTNLPTT : 0.696
5) PGRYTDCCLPNR : 0.682
6) PPPPFPPPPPHS : 0.719

Attention now shifts to the item below.
# input Given the sequence "GHVEGPGDAESS" , what is its reported protein stability index?
# output 0.701

---

tested on: Saccharomyces cerevisiae; test: protein stability index of tFT-peptide fusion (C-terminal peptide) (PSI (0-1 scale)); higher = more stable (slower turnover); details: genetic background: wild type; temperature: 30 C
protein stability index by entry:
Respond numerically, and do not add a unit to the figure.

Below are worked cases with known answers.
1. WRDGSLKIKCML : 0.756
2. FYVCVIQNMYML : 0.579

# input Given the sequence "FHRESAEPSLWS" , what is its reported protein stability index?
# output 0.697

# input Given the sequence "GNVAMRKNIIGL" , what is its reported protein stability index?
# output 0.674

# input Given the sequence "MYAWPISPRPLL" , what is its reported protein stability index?
# output 0.738

# input Given the sequence "HLLCPLSPYICH" , what is its reported protein stability index?
# output 0.681

---

test system: Saccharomyces cerevisiae; experiment: protein stability index of tFT-peptide fusion (C-terminal peptide) (PSI (0-1 scale)); higher = more stable (slower turnover); conditions: genetic background: wild type; temperature: 30 C
protein stability index by entry:
Respond numerically, and do not add a unit to the figure.

1) QFIGVGKVQRFG : 0.59
2) NNRVVRGRKWGG : 0.682
3) NARPSPRSHSLE : 0.692

# input Given the sequence "PFLSLPLSPPPP" , what is its reported protein stability index?
# output 0.71

# input Given the sequence "VLPPLPGPPTLS" , what is its reported protein stability index?
# output 0.695

# input Given the sequence "GHNTPRRVMSRC" , what is its reported protein stability index?
# output 0.689

# input Given the sequence "GGCTVLRASIFA" , what is its reported protein stability index?
# output 0.597

# input Given the sequence "TPPLALPAPCST" , what is its reported protein stability index?
# output 0.679

---

tested on: Saccharomyces cerevisiae; assay: protein stability index of tFT-peptide fusion (C-terminal peptide) (PSI (0-1 scale)); higher = more stable (slower turnover); details: genetic background: das1 deletion; temperature: 30 C
Parameter threshold = 0.7. Response is y when protein stability index meets or exceeds it, else n.

1) TLVFDVELLKVN [FPR1 C-terminal 12 aa] : n
2) ANSLDAIFLKSK [YNL150W C-terminal 12 aa] : n

# input Quick check: does LIWELGDGQSGQ [INO4 C-terminal 12 aa] have protein stability index greater than or equal to 0.7?
# output y

---

test system: Saccharomyces cerevisiae; test: protein stability index of tFT-peptide fusion (C-terminal peptide) (PSI (0-1 scale)); higher = more stable (slower turnover); settings: genetic background: wild type; temperature: 30 C
endpoint.label: protein stability index
Respond numerically, and do not add a unit to the figure.

Below are worked cases with known answers.
1. DVLSPRPSPLPS : 0.665
2. GPGCVFFLACRG : 0.559
3. CVCVCHPPRRFL : 0.719

# input Under Saccharomyces cerevisiae: protein stability index value of "KGGGMWRCCVWR" ?
# output 0.685

# input Under Saccharomyces cerevisiae: protein stability index value of "TRLVYFYLGRDI" ?
# output 0.656

---

protein stability index by entry:
test system: Saccharomyces cerevisiae; test: protein stability index of tFT-peptide fusion (C-terminal peptide) (PSI (0-1 scale)); higher = more stable (slower turnover); conditions: genetic background: wild type; temperature: 30 C
Respond numerically, and do not add a unit to the figure.

Below are worked cases with known answers.
1) APPPSPSPPPPL : 0.712
2) GKRLRFNRRTRA : 0.662
3) PPTSLRFRPPYC : 0.682
4) GVSGGDGSKCKE : 0.682
5) GGRGYRIKRKSV : 0.806
6) YGEGSPPCMPEL : 0.709
7) GPVQSISMTVGH : 0.655
8) VWFLSYLSVIFP : 0.58
9) FHRSNFLPFFHL : 0.593
10) SPALLAPPFSPS : 0.685

# input Given the sequence "LFDRRDTSTLLL" , what is its reported protein stability index?
# output 0.707

# input Given the sequence "FVLWWGWSWLVV" , what is its reported protein stability index?
# output 0.235

# input Given the sequence "LYLFKVLFFRVF" , what is its reported protein stability index?
# output 0.104

# input Given the sequence "LCPNFFFFSSSP" , what is its reported protein stability index?
# output 0.75

# input Given the sequence "NLAGLVREYSGY" , what is its reported protein stability index?
# output 0.684

# input Given the sequence "LRPRRCWNQWDM" , what is its reported protein stability index?
# output 0.675

# input Given the sequence "QTNIGRKRTLPR" , what is its reported protein stability index?
# output 0.718

# input Given the sequence "SVTTNDQLPCHS" , what is its reported protein stability index?
# output 0.691

---

tested on: Saccharomyces cerevisiae; experiment: protein stability index of tFT-peptide fusion in deletion strain of DAS1 (PSI (0-1 scale)); higher = more stable (slower turnover)
protein stability index by entry:
Respond numerically, and do not add a unit to the figure.

1) VRGAVGGWRLVQ : 0.684
2) CTSCGYKFRTNW : 0.705
3) RLIQKLPVQFLN : 0.589

# input Under Saccharomyces cerevisiae: protein stability index value of "LVVYLSCMACIN" ?
# output 0.0753

# input Under Saccharomyces cerevisiae: protein stability index value of "FSMRWTFRYRVN" ?
# output 0.586

# input Under Saccharomyces cerevisiae: protein stability index value of "PSLAASFWRVVGL" ?
# output 0.713

# input Under Saccharomyces cerevisiae: protein stability index value of "ARWRVGLWRGAM" ?
# output 0.702

# input Under Saccharomyces cerevisiae: protein stability index value of "VRGAVGGWALVG" ?
# output 0.667

# input Under Saccharomyces cerevisiae: protein stability index value of "LVVYESCVACIN" ?
# output 0.402

# input Under Saccharomyces cerevisiae: protein stability index value of "LVPYLSCVACIN" ?
# output 0.366

# input Under Saccharomyces cerevisiae: protein stability index value of "VRGAVGGKRLVG" ?
# output 0.677

# input Under Saccharomyces cerevisiae: protein stability index value of "RLIQPLPVQFLP" ?
# output 0.57
